Hello, the source for this data is PubChem BioAssay (NCI), in case you need it.

System: SK-MEL-5 melanoma
method notes: NCI tumour cell line growth inhibition, 48 h; in the data active = GI50 below about 0.43 µM; inactive = the rest
Outcomes you can answer with include only these: true (1) for active, false (0) for inactive

C[C@@H]1CC[C@@]2(OC1)O[C@H]1C[C@H]3[C@@H]4CC=C5C[C@@H](O[C@@H]6O[C@H](CO)[C@@H](O[C@@H]7O[C@@H](CO)[C@H](O)[C@H]7O)[C@H](O)[C@H]6O[C@@H]6O[C@@H](C)[C@H](O)[C@@H](O)[C@H]6O)CC[C@]5(C)[C@H]4CC[C@]3(C)[C@H]1[C@@H]2C :: false (0)
COc1ccc(-c2ccc(-c3ccc(C(=N)N)cn3)s2)cc1Cl :: false (0)
COc1ccc(/C=C2\COc3ccc(-c4ccccc4)cc3C2=O)cc1O :: false (0)
O=C(/C=C/c1ccco1)Nc1ncc(Cc2ccc(F)cc2)s1 :: true (1)

Give the logged outcome of this assay for the following compound: C=C(C)C1/C=C(/C(C)C)CC[C@]2(C)O[C@@H]2CC[C@H](C)CC1=O (stereo not given in full)
false (0)
